Test system: SRPK3
conditions used: concentration: 1 μM, replicates: in singlicate; n = 1;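 also: KINOMEscan kinase panel screen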
Answer Condition not met if %Inh is under 3%, and Condition met if it is 3% or more.

Worked set:
- CC(C)Oc1ccc2c(-c3ccnc(Nc4ccc(N5CCN(C)CC5)cc4)n3)cnn2n1: Condition met
- Cc1cn2c(=O)cc(N3CCOCC3)nc2n1Cc1cccc(Cl)c1Cl: Condition not met
- O=C(NOCC1CC1)c1ccc(F)c(F)c1Nc1ccc(I)cc1Cl: Condition met
- COC(=O)Nc1nc2cc(Oc3ccc(NC(=O)Nc4cc(F)ccc4F)cc3)ccc2[nH]1.Cl: Condition not met
- Cl.Nc1ncnc2occ(-c3ccc(NC(=O)Nc4cc(C(F)(F)F)ccc4F)cc3)c12: Condition not met
- CC(C)(CN)c1nc(-c2ccc(Cl)c(O)c2)c(-c2ccncc2)[nH]1.O=C(O)C(F)(F)F: Condition not met
- COc1ccc(Nc2ncc(C#N)c(Nc3ccccc3C(N)=O)n2)cc1N1CCN(C)CC1.Cl: Condition met

--- query ---
Check the entry CN(C1=C(c2ccccc2)C(=O)NC1=O)c1ccccc1 : does %Inh equal or exceed 3%?
Condition not met

###

System: JAK1(JH1domain-catalytic)
conditions used: concentration: 1 μM, replicates: in singlicate; n = 1
experimental readout: %Inh (%)
Express the result in % but write the number alone.

Use the examples below as a reference point.
• Fc1ccc(-c2ncn(CCCN3CCOCC3)c2-c2cccnc2)cc1 = 20
• Cl.Nc1ncnc2occ(-c3ccc(NC(=O)Nc4cc(C(F)(F)F)ccc4F)cc3)c12 = 50
• O=C(NCCNc1ccnc(Nc2ccc(F)cc2)n1)Nc1ccccc1F = 23
• CCc1ccnc(/C=C/c2n[nH]c3cc(Sc4ccccc4C(=O)NC)ccc23)c1 = 0

Here is another compound to look at.
Would you kindly share the measured %Inh for CC(C)(C)n1cnc2c(N)ncnc21 ?
0

###

System: JAK2(JH1domain-catalytic)
conditions used: concentration: 1 μM, replicates: in singlicate; n = 1
The entries below come with measured %Inh values attached.
Value expressed in %; do not type the unit.

Lab note: need %Inh with JAK2(JH1domain-catalytic) for entry COc1cc2ncn(-c3cc(OCc4sccc4Cl)c(C(N)=O)s3)c2cc1OC , please look it up.
2

So what %Inh did Cn1cc(-c2ccc3c(c2)CCN3C(=O)Cc2ccccc2Cl)c2c(N)ncnc21 get with JAK2(JH1domain-catalytic)?
0

Form entry - test system: JAK2(JH1domain-catalytic); read-out: %Inh; compound: Fc1ccc(-c2nn3c(OCC(F)(F)F)cccc3c2-c2ccncc2)cc1
4

###

Catalogue of %Inh readings, one per entry.
System: PRKCH
conditions used: concentration: 1 μM, replicates: in singlicate; n = 1
Report the value in % with no unit label.

The examples below pair each entry with its known result.
* O=C(Nc1cccc(-c2nn3ncccc3c2-c2ccnc(Nc3cccc(C(F)(F)F)c3)n2)c1)c1c(F)cccc1F [GSK299495] | 16
* COC(=O)Nc1nc2cc(Oc3ccc(NC(=O)Nc4cc(F)ccc4F)cc3)ccc2[nH]1.Cl [GW701424] | 5
* Cc1c2ccc(N(C)c3ccnc(Nc4cccc(S(N)(=O)=O)c4)n3)cc2nn1Cc1ccccc1.Cl.Cl [GW787226] | 0

GET /values?readout=%Inh&item= c1ccc(-c2cc(-c3c[nH]nc3-c3ccccn3)ccn2)cc1 [GW576604]
0

Can you share its %Inh? I mean this molecule: O=c1cc(N2CCOCC2)nc2n(Cc3cccc(C(F)(F)F)c3)ccn12 [GSK2297543]
9

Bench note: what %Inh did Cc1cn2c(=O)cc(N3CCOCC3)nc2n1Cc1cccc(Cl)c1Cl [GSK2334006] show?
28

Return reported %Inh; argument: Cc1cccc(-c2nc(-c3ccc(S(C)(=O)=O)cc3)sc2-c2ccncc2)c1
10

Given the entry CN(C1=C(c2ccccc2)C(=O)NC1=O)c1ccccc1 [SB-334860] , report its measured %Inh.
6
